- Target Or System: β-CA from Burkholderia pseudomallei (BpsCAβ) (Burkholderia pseudomallei, UniProt Q63Y17)
- Sequence (Q63Y17 1-256): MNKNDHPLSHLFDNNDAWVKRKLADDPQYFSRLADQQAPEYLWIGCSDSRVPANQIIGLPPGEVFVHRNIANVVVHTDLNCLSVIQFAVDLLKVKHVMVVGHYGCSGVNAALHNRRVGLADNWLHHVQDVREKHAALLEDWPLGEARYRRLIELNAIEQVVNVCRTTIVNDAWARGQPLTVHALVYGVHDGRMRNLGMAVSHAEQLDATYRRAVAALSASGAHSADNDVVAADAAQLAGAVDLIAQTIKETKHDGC
- Condition Summary: read-out: KI BpsCAβ
pKi: −log10 of the molar value.
Listed molecules paired with reported pKi

Compound String	pKi
COC(=O)c1cn(-c2ccc(S(N)(=O)=O)cc2)cc2c(=O)[nH]nc1-2	6.64
Cc1cc(O)cc(=O)n1CCS(N)(=O)=O	7.02
COC(=O)c1cn(CCS(N)(=O)=O)cc2c(=O)[nH]nc1-2	6.18

----------
- Target Or System: BpsCAγ (Burkholderia pseudomallei)
- Sequence (Q63SQ4 1-174): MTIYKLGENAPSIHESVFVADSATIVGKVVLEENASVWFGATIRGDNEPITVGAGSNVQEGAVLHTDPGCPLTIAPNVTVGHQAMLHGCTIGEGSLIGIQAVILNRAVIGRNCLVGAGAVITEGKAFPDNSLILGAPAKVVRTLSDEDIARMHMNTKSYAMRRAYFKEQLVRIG
- Condition Summary: read-out: KI BpsCAγ
pKi: −log10 of the molar value.
Listed compounds paired with reported pKi

Compound String	pKi
CC(=O)N1CC(Nc2ccc(S(N)(=O)=O)cc2)=CC1=O	7.01
CC(=O)N1CC(Nc2cccc(S(N)(=O)=O)c2)=CC1=O	6.08
COC(=O)c1cn(CCc2ccc(S(N)(=O)=O)cc2)cc2c(=O)[nH]nc1-2	5.87
NS(=O)(=O)CCNC=C1C(=O)Oc2ccccc2C1=O	6.20

----------
pKi: −log10 of the molar value.
Record type: pKi measurement. Applies to: γ-CA from E. coli (Escherichia coli, UniProt P0A9W9)

Compound	pKi
CC12CC(c3ccccc3O1)C(C(N)=O)C(=O)N2CCc1ccc(S(N)(=O)=O)cc1 (stereo not drawn)	7.20
COC(=O)c1cn(CCc2ccc(S(N)(=O)=O)cc2)cc2c(=O)[nH]nc1-2	7.24
COC(=O)c1cn(CC(=O)Nc2ccc(S(N)(=O)=O)cc2)cc2c(=O)[nH]nc1-2	7.18

----------
Listed compounds paired with reported melting point

Compound	melting point
COC(=O)c1cn(CCc2ccc(S(N)(=O)=O)cc2)cc2c(=O)[nH]nc1-2	> 300 °C
CC(=O)N1CC(Nc2ccc(S(N)(=O)=O)cc2)=CC1=O	285 to 287 °C
COC(=O)c1cn(CCS(N)(=O)=O)cc2c(=O)[nH]nc1-2	> 300 °C
COC(=O)c1cn(CC(=O)Nc2ccc(S(N)(=O)=O)cc2)cc2c(=O)[nH]nc1-2	> 300 °C
COC(=O)C1=CN(Cc2ccc(S(N)(=O)=O)cc2)C=C2C(=O)N=NC21 (stereo not drawn)	> 300 °C
Cc1cc(O)cc(=O)n1CCS(N)(=O)=O	243 to 245 °C

----------
Record type: Ki measurement. Applies to: UniProtKB P00915
Sequence (P00915 whole entry): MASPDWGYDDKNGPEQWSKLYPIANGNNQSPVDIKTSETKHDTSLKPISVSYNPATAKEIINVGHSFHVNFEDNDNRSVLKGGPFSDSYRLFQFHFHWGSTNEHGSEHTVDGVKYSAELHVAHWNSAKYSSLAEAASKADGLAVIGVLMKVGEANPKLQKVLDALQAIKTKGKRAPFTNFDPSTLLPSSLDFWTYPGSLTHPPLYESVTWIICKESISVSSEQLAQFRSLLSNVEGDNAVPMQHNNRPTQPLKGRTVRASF

Compound	Ki
CC(=O)N1CC(Nc2ccc(S(N)(=O)=O)cc2)=CC1=O	66.8 nM
COC(=O)c1cn(-c2ccc(S(N)(=O)=O)cc2)cc2c(=O)[nH]nc1-2	157 nM
CC(=O)N1CC(Nc2cccc(S(N)(=O)=O)c2)=CC1=O	136 nM
CC12CC(c3ccccc3O1)C(C(N)=O)C(=O)N2CCc1ccc(S(N)(=O)=O)cc1 (stereo not shown)	88.3 nM

----------
- Target Or System: hCA II (Homo sapiens, UniProt P00918)
pKi: −log10 of the molar value.
Listed compounds paired with reported pKi

Compound	pKi
COC(=O)c1cn(-c2ccc(S(N)(=O)=O)cc2)cc2c(=O)[nH]nc1-2 [Compound 1b]	7.29
COC(=O)c1cn(CC(=O)Nc2ccc(S(N)(=O)=O)cc2)cc2c(=O)[nH]nc1-2 [Compound 1f]	8.18
CC(=O)N1CC(Nc2ccc(S(N)(=O)=O)cc2)=CC1=O [Compound 1g]	7.38
COC(=O)c1cn(CCS(N)(=O)=O)cc2c(=O)[nH]nc1-2 [Compound 1a]	5.13
Cc1cc(O)cc(=O)n1CCS(N)(=O)=O [Compound 1i]	5.17
